measured on: C. elegans (N2) complex I (NADH:ubiquinone oxidoreductase) (Caenorhabditis elegans, UniProt P24887+Q93873+Q94360)
Sequence (Q94360 17-199): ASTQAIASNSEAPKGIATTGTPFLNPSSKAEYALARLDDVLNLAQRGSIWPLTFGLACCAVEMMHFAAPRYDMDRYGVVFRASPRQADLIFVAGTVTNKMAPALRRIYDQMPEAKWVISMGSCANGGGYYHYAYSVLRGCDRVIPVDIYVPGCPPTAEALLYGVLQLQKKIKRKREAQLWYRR
Sequence (P24887 whole entry): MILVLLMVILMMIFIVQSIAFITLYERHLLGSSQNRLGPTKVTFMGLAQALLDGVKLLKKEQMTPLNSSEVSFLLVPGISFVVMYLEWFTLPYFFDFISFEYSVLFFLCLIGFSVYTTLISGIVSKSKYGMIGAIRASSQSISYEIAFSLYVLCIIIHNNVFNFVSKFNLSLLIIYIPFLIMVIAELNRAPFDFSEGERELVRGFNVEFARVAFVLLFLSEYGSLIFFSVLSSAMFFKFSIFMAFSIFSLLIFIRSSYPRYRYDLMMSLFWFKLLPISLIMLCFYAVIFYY
Sequence (Q93873 31-482): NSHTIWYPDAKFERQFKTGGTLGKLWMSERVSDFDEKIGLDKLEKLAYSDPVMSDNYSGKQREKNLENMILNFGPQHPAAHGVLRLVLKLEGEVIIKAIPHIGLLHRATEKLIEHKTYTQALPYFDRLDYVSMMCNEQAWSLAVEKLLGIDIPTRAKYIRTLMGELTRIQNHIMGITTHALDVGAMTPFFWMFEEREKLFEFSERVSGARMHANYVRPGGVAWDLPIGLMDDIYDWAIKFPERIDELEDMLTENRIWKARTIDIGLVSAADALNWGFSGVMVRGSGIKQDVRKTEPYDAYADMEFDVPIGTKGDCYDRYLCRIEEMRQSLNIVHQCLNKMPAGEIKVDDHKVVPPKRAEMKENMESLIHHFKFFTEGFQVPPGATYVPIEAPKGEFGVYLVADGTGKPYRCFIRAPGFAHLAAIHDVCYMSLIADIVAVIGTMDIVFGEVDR
experiment: biochemical
Type: biochemical
stated conditions: wild-type (N2) mitochondria; read-out: C. elegans Complex I IC50
pIC50: −log10 of the molar value.

compound | pIC50
FC(F)(F)c1cccc(OCCCCn2cnc3ccccc32)c1 | 5.69
Cc1nc2ccccc2n1Cc1ccccc1Cl | 6.25
CCCOc1ccc(Cn2cnc3ccccc32)cc1 | 6.21
Cc1nc2ccccc2n1Cc1ccc(C(C)(C)C)cc1 | 5.59
Cc1ccc(Cn2c(C(C)C)nc3ccccc32)cc1 | 5.03
Cc1nc2ccccc2n1Cc1ccc(Cl)cc1 | 6.96
Cc1ccc2nc(C(C)c3ccc(CC(C)C)cc3)[nH]c2c1 (centres unmarked) | 6.04
Cn1c(Cc2ccc(Cl)cc2)nc2ccccc21 | 5.08
Cc1ccc(SCCCCn2cnc3ccccc32)cc1 | 5.98
C=C(C)[C@H]1Cc2c(ccc3c2O[C@@H]2COc4cc(OC)c(OC)cc4[C@@H]2C3=O)O1 [Rotenone, reference compound] | 7.35
Cc1nc2ccccc2n1Cc1ccc(F)cc1 | 6.03
CC(C)(C)c1ccc(CCOc2ncnc3ccccc23)cc1 [Fenazaquin, reference compound] | 8.38
Nc1nc2ccccc2n1Cc1ccc(Br)cc1 | 6.47
Cc1nc2ccccc2n1Cc1ccc(C(C)C)cc1 | 6.37
COc1ccc(Cc2nccc3cc(OC)c(OC)cc23)cc1OC [Papaverine, reference compound] | 5.36
CCn1c(C(C)c2ccc(CC(C)C)cc2)nc2ccccc21 (centres unmarked) | 5.74
Cc1ccccc1OCCCCn1cnc2ccccc21 | 6.85
Clc1ccc(Cn2cnc3ccccc32)c(Cl)c1 | 6.35
Cc1nc2ccccc2n1Cc1ccc(Br)cc1 | 7.49
Cc1ccc(Cn2c(C)nc3ccccc32)cc1 | 6.74
